Give LD50 at 24 h for every item shown.
- procedure text: Compound was evaluated for acute toxicity (24 h) in female roswell park white mice given intraperitoneally
- Format: organism-based
- condition context: mouse, in vivo, ip
Report as a plain number; the unit µmol/kg is understood.

Report LD50 at 24 h for C=C[C@H]1CN2CC[C@H]1C[C@@H]2[C@@H](O)c1ccnc2ccc(OC)cc12 please.
524

Report LD50 at 24 h for CN1CCC2C(CCCC2NC(=O)c2ccc(C(F)(F)F)cc2)C1 (configuration not stated) please.
661

Report LD50 at 24 h for COc1cc(C(=O)NC2CCCC3CN(C)CCC32)cc(OC)c1OC (configuration not stated) please.
610

Report LD50 at 24 h for CN1CCC2C(CCCC2NC(=O)c2ccc([N+](=O)[O-])cc2)C1 (configuration not stated) please.
1100

Report LD50 at 24 h for CN1CCC2C(CCCC2NC(=O)c2ccc(F)cc2)C1 (configuration not stated) please.
992

Report LD50 at 24 h for Cc1ccc(C(=O)NC2CCCC3CN(C)CCC32)cc1 (configuration not stated) please.
803

Report LD50 at 24 h for CN1CCC2C(CCCC2NC(=O)c2ccc(Cl)c(Cl)c2)C1 (configuration not stated) please.
630

Report LD50 at 24 h for CN1CCC2C(CCCC2NC(=O)c2ccccc2)C1 (configuration not stated) please.
866

Report LD50 at 24 h for CN1CCC2C(CCCC2NC(=O)c2ccc(Cl)cc2Cl)C1 (configuration not stated) please.
624

Report LD50 at 24 h for CN1CCC2C(CCCC2NC(=O)c2ccc(Cl)cc2)C1 (configuration not stated) please.
929

Report LD50 at 24 h for CN1CCC2C(CCCC2NC(=O)c2cccc(Cl)c2)C1 (configuration not stated) please.
613

Report LD50 at 24 h for COc1ccc(C(=O)NC2CCCC3CN(C)CCC32)cc1 (configuration not stated) please.
1140

* * *

- procedure text: Ratio of lethal dose to that of effective dose in mice
- Type: ADME, organism-based
- condition context: mouse, in vivo
recorded endpoint: therapeutic index (LD50/ED50)
Kindly provide the number alone.

Report therapeutic index (LD50/ED50) for CN1CCC2C(CCCC2NC(=O)c2ccccc2)C1 (stereo unspecified) please.
8.58

Report therapeutic index (LD50/ED50) for CN1CCC2C(CCCC2NC(=O)c2ccc([N+](=O)[O-])cc2)C1 (stereo unspecified) please.
11.7

Report therapeutic index (LD50/ED50) for COc1cc(C(=O)NC2CCCC3CN(C)CCC32)cc(OC)c1OC (stereo unspecified) please.
24

Report therapeutic index (LD50/ED50) for CN1CCC2C(CCCC2NC(=O)c2cccc(Cl)c2)C1 (stereo unspecified) please.
8.36

Report therapeutic index (LD50/ED50) for COc1ccc(C(=O)NC2CCCC3CN(C)CCC32)cc1 (stereo unspecified) please.
10.4

Report therapeutic index (LD50/ED50) for CN1CCC2C(CCCC2NC(=O)c2ccc(Cl)cc2Cl)C1 (stereo unspecified) please.
7.1

Report therapeutic index (LD50/ED50) for CN1CCC2C(CCCC2NC(=O)c2ccc(Cl)cc2)C1 (stereo unspecified) please.
19

Report therapeutic index (LD50/ED50) for Cc1ccc(C(=O)NC2CCCC3CN(C)CCC32)cc1 (stereo unspecified) please.
7.3

Report therapeutic index (LD50/ED50) for CN1CCC2C(CCCC2NC(=O)c2ccc(F)cc2)C1 (stereo unspecified) please.
9

Report therapeutic index (LD50/ED50) for CN1CCC2C(CCCC2NC(=O)c2ccc(C(F)(F)F)cc2)C1 (stereo unspecified) please.
13.6

Report therapeutic index (LD50/ED50) for CN1CCC2C(CCCC2NC(=O)c2ccc(Cl)c(Cl)c2)C1 (stereo unspecified) please.
19.6
